experiment: DUSP6 inhibitors restoring Erk phosphorylation by chemical complementation, primary imaging in DUSP6-transfected HeLa (AID 609); conditions: HeLa MKP-3 transfected, phospho-Erk imaging KS statistic; measured here: nuclear c-Myc green intensity z-score; at 10 µM; cells stimulated with TPA for 15 min
molecules and their reported z-score
Quick one: just the number, no unit, thanks!

Record excerpt, results attached:
[
  {
    "molecule": "c1ccc(OCc2nn3c(-c4cccnc4)nnc3s2)cc1",
    "quantitative_readout": -1.52
  },
  {
    "molecule": "C=CCOc1nc2c(c(=O)n(Cc3ccc(Cl)c(Cl)c3)c(=O)n2C)n1C",
    "quantitative_readout": 1.15
  },
  {
    "molecule": "CC(CCc1ccccc1)NCC(O)c1ccc(O)c(C(N)=O)c1 (stereo unspecified)",
    "quantitative_readout": -0.198
  },
  {
    "molecule": "Cc1ccc2c(c1)[C@@H]1CN(C)CC[C@@H]1N2S(=O)(=O)c1ccc(F)cc1",
    "quantitative_readout": -0.478
  }
]

Item under review: c1csc(-c2nn3c(C4CCCCC4)nnc3s2)c1 . Reported z-score?
-0.584

Item under review: CCCc1cc(-c2nc(N)ncc2-c2ccc3c(c2)OCCCO3)c(O)cc1OC . Reported z-score?
-1.91

Item under review: CC1(C)CN(O)CCN1O . Reported z-score?
-0.721

Item under review: CCCc1nnc(NC(=O)c2c(O)c3c([nH]c2=O)CCCC3)s1 . Reported z-score?
-0.454

====

test: DUSP6 inhibitors restoring Erk phosphorylation by chemical complementation, primary imaging in DUSP6-transfected HeLa (AID 609); conditions: HeLa MKP-3 transfected, phospho-Erk imaging KS statistic; measured here: nuclear c-Myc green intensity z-score; at 10 µM; cells stimulated with TPA for 15 min
reported_property: z-score
Quick one: just the number, no unit, thanks!

Record excerpt, results attached:
[
  {
    "molecule": "COc1ccccc1N1CCN(C2CCN(C(=O)c3cccs3)CC2)CC1",
    "quantitative_readout": 0.0653
  },
  {
    "molecule": "CC(C)Cc1nc(NCCN2CCOCC2)c(C#N)c2c1COC(C)(C)C2",
    "quantitative_readout": 1.03
  },
  {
    "molecule": "CN(C)CCNc1nc(-c2ccco2)c2c(c1C#N)CC(C)(C)OC2",
    "quantitative_readout": -0.517
  },
  {
    "molecule": "COc1ccc(NS(=O)(=O)c2ccc(N)cc2)nn1",
    "quantitative_readout": -1.5
  },
  {
    "molecule": "COc1ccc(-c2c3c([nH]c(=S)c2C#N)CCC3)cc1",
    "quantitative_readout": 1.87
  }
]

Item under review: Clc1cccc(-c2nn3c(-c4cccc(Cl)c4)nnc3s2)c1 . Reported z-score?
1.46

Item under review: Cc1nc2sc(C#N)c(N)c2c2c1CCCC2 . Reported z-score?
2.17

Item under review: CN(C)CCCN1C(=O)C(O)=C(C(=O)c2cc3ccccc3o2)C1c1ccccn1 (stereo not given) . Reported z-score?
-1.21

Item under review: CC1CCc2cc(F)cc3c(O)c(C(=O)NCC4CCCO4)c(=O)n1c23 (stereo not given) . Reported z-score?
-0.796

Item under review: CCOc1cccc(-c2nnc3sc(-c4cccs4)nn23)c1 . Reported z-score?
1.1

Item under review: Cc1nccn1-c1cc(C(C)C)c(C#N)c2nc3ccccc3n12 . Reported z-score?
-0.347

Item under review: Cc1ccc2cc(CN(C(=O)c3ccco3)c3ccccc3)c(=O)[nH]c2c1 . Reported z-score?
-0.685

Item under review: CCN(CC)c1ccc2cc(-c3nnc(-c4ccncc4)o3)c(=O)oc2c1 . Reported z-score?
1.6

Item under review: Cc1ccc2[nH]c3c(c2c1)CN(C(=O)CN1CCN(c2ccccn2)CC1)CC3 . Reported z-score?
-0.583
